// provenance: PubChem BioAssay (NCI)

Test system: MOLT-4 leukemia
method: NCI tumour cell line growth inhibition, 48 h; in the data active means GI50 below about 0.43 µM; inactive means the rest
Permitted responses: T = active, F = inactive

Check out these entries, answers already filled in.
- compound: "CN(C)c1ccc(N2Cc3ccccc3OC3=C2C(=O)c2c(O)ccc(O)c2C3=O)cn1"
  class_assignment: "T"
- compound: "CCCN(CCC)C(=O)C1=Cc2ccc(-c3ccc(C(=O)N4CCCC4)cc3)cc2N=C(N)C1"
  class_assignment: "F"
- compound: "COc1cc2c3c(n(CCCCOC(=O)C(F)(F)F)c(=O)c2cc1OC)-c1cc2c(cc1C3=O)OCO2"
  class_assignment: "F"
- compound: "O=C1CC(c2ccc(N3CCOCC3)cc2)(c2ccsc2)NC(=O)C1Sc1ccccc1Cl (stereo not given)"
  class_assignment: "F"
- compound: "COc1ccc2nc(-c3cc(-c4cc(OC)c(OC)c(OC)c4)n[nH]3)[nH]c2c1"
  class_assignment: "F"

Query block: State the result this test recorded for C[C@@H]1CN(C(=O)c2ccc(NC(=O)c3cc(O[C@H](C)c4c(Cl)ccc(F)c4Cl)c(N)nn3)cc2)C[C@H](C)N1 .
Result block: F

Query block: State the result this test recorded for COc1cc2nc(-c3cnc(N(C)C)nc3)nc(NC3CCN(Cc4ccccc4)CC3)c2cc1OC .
Result block: F

Query block: State the result this test recorded for CC[C@@H](C(=O)[C@@H](C)[C@@H](O)[C@H](C)[C@@H]1O[C@@H]([C@@H](CC)C(=O)O)CC[C@@H]1C)C1O[C@]2(C=CC(=O)[C@]3(CC[C@@](C)([C@H]4CC[C@](O)(CC)[C@H](C)O4)O3)O2)[C@H](C)C[C@@H]1C (stereo not given in full) .
Result block: F

Query block: State the result this test recorded for C[n+]1c(/C=C\c2ccc(Cl)cc2)ccc2ccccc21 .
Result block: F
